// data source = the supplement of paper PMC10567573

Items are presented alongside their recorded protein stability index.
B1: TRIM43 (parent)
chain: FCDMDKSLLCLLCSNSQEHGAHKH

Variants of: B1
Assay: protein stability index of a GFP-peptide fusion (GPS, HEK-293T) (PSI 1-6); higher = more stable;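 further: lentivirally expressed fusions sorted by FACS into six bins by GFP to DsRed ratio, PSI derived from sequencing read proportions per bin multiplied by bin number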
Conditions: c terminus: a fixed tail appended

Example entries and their recorded answers appear below.
INSERT INTO measurements (seq_string, value_reported) VALUES
  ('FCDMDKSLLCLLCSNSKEHGAHKH [Q17K]', 2.13),
  ('FCDMDKSLLCLHCSNSQEHGAHKH [L12H]', 2.78),
  ('FCDMDKSLLWLLCSNSQEHGAHKH [C10W]', 2.57),
  ('FCDMDKGLLCLLCSNSQEHGAHKH [S7G]', 1.92);

Lookup: Field request: protein stability index | item: FCDMDKSLLCLLCSNSQEHGSHKH [A21S]
Found: 2.02

Lookup: Quick one: protein stability index for FCDMDKSLGCLLCSNSQEHGAHKH [L9G] ?
Found: 1.64

Lookup: # input variant: FCDMDKSLLCLLCSNSQEHNAHKH [G20N] ; wanted: its protein stability index
Found: 2.03

Lookup: I would be grateful if you could share the reported protein stability index for FCDMDKSCLCLLCSNSQEHGAHKH [L8C] .
Found: 2.64

Lookup: Query (variant): FCDMFKSLLCLLCSNSQEHGAHKH [D5F] ; field requested: protein stability index
Found: 3.03
